Values from the supplement of paper PMC3545927

biological target: furin, P09958; assay: furin cleavage Z-score vs untreated control; higher = more cleavage, active = 3.5 or more, inactive = 1 or less, 8 variable residues between constant flanks; settings: 15 min;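 also: purified furin at 1:10 enzyme:substrate in 50 mM HEPES pH 7.5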
Sequence (P09958 whole entry): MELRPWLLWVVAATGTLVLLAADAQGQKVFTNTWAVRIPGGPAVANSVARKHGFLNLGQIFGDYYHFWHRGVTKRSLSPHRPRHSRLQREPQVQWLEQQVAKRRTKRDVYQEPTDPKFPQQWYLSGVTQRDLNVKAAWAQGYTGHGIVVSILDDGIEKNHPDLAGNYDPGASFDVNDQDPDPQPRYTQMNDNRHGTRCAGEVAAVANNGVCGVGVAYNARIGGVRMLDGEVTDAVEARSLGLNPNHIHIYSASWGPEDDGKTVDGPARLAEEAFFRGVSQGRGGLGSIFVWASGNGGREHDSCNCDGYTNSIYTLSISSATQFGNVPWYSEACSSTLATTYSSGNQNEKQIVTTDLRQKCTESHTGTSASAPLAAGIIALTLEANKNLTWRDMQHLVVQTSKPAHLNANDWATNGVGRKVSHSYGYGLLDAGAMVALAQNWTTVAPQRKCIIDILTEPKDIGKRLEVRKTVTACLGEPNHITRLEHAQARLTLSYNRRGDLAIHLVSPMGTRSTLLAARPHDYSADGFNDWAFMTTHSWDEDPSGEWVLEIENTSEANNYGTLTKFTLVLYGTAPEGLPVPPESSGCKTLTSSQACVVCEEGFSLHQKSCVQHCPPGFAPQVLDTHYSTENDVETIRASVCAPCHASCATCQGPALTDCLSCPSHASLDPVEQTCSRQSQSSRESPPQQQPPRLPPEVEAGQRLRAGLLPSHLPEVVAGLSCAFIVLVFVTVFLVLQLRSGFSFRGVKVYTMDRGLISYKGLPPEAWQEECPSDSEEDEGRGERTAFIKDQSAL
Some of the results follow. No count for the full screen is at hand.
Classify as follows. Reported furin cleavage Z-score greater than or equal to -0.4: Satisfied. Reported furin cleavage Z-score below: Not satisfied.

> print(dat)
                 sequence.input          label
1  CAKNMRRKRKAGNASASA [FS-1222]      Satisfied
2   CAGRSHSKRKAGNASASA [FS-245]      Satisfied
3   CAVTVRWKRGAGNASASA [FS-313]      Satisfied
4  CAKKKRVVPKAGNASASA [FS-2122]      Satisfied
5   CADPTTPLARAGNASASA [HC1564]  Not satisfied
6  CAKKKRKFSKAGNASASA [FS-2866]  Not satisfied
7  CAKKKRRKRKAGNASASA [FS-1218]      Satisfied
